- System: SF-268 CNS
- assay_procedure: NCI-60 one-dose screen, 48 h (100 = growth as untreated, 0 = no growth, -100 = all killed)
- setup_conditions: 10 µM unless noted
About 83,000 compounds went through this panel and 20% of them were active in at least one assay; those are over-represented in the sample as a whole.
Classes based on growth: low class = under 50%, middle class = from 50% up to 90%, high class = 90% and over

# count of solved cases: 5
Q) Entry O=S1(=O)N(Cc2ccccc2)[C@@H](Cc2ccccc2)C2O[C@H]2[C@H](Cc2ccccc2)N1Cc1ccccc1 (some centres not stated) belongs to which category?
A) middle class

Q) # repeat for Nc1ccccc1-c1ccc(-c2ccc(Cl)cc2)c2c1[nH]c1ccccc12
A) middle class

Q) # repeat for O=C(CCc1nnc2sc(Cc3ccccc3Cl)nn12)c1nc2ncccc2[nH]1
A) middle class

Q) # repeat for O=C(CN1C=NC2C(N3CCOCC3)=NC=NC21)c1ccc(Br)cc1 (configuration not stated)
A) high class

Q) # repeat for COc1ccc(/C=C2\N=C(c3ccccc3)N(c3ccc(-c4nc5ccc(C)cc5s4)cc3)C2=O)cc1
A) middle class

Continuing:
Q) Entry CC(C)c1ccc(S(=O)(=O)NC(=O)NC2CCCC2)cc1 belongs to which category?
A) high class

Q) # repeat for N#C/C(=C\c1c(-c2ccccc2)[nH]c2ccccc12)C(=O)c1ccccc1
A) middle class

Q) # repeat for COc1ccc(OC)c(NC(=O)/C(C#N)=C/c2ccco2)c1
A) high class

----------
- Test system: LOX IMVI melanoma
- assay_procedure: NCI-60 one-dose screen, 48 h
- setup_conditions: 10 µM unless noted
The panel holds about 83,000 compounds, 20% with a hit somewhere; the sample as a whole holds those more often. Calls of active or inactive are those of the source. The calls were made as follows: active = growth percent below 10; inactive = the rest.
Use one of these outcomes when replying: yes = active, no = inactive

Q) How did this test come out for CCOc1cc(Cl)c(C(C)NC(=O)c2cccc(OC)c2)cc1OCC (stereo unspecified) ?
A) yes

Q) # repeat for CCN1C(=O)N(CC)C2C1NN=c1s/c(=C3\C(=O)N(CC(C)(C)C)c4ccccc43)c(=O)n12 (stereo unspecified)
A) no

Q) # repeat for Cn1c2c(c(=O)[nH]c1=O)NC1=C(C(=O)c3ccccc31)C1(C=C(O)c3ccccc31)N2 (stereo unspecified)
A) no

Continuing:
Q) How did this test come out for O=C(Nc1ccc(Cl)cc1)c1cc2ccccc2cc1OP(=O)(O)O ?
A) no

Q) # repeat for c1ccc2c(c1)oc1cc3sccc3nc12
A) no

Q) # repeat for CN1CCN(c2nc(Nc3ccc(O)cc3)nc3ccccc23)CC1
A) no

Q) # repeat for O=c1c2cccc(F)c2sc2c(N3CCNCC3)nc3ccccc3c12
A) no

Q) # repeat for CC(C)C[C@H](C(=O)N[C@@H](C)C(N)=O)N1CC=CCN(O)S1(=O)=O
A) no

Q) # repeat for CCCCC1COc2cccc3c2N1C=C/C3=C\C(=O)N(C)c1ccccc1 (stereo unspecified)
A) no

Q) # repeat for COc1cc(/C=C/C(=O)c2ccc(Nc3nc(NCCO)nc(N4CCOCC4)n3)cc2)cc(OC)c1OC
A) no

Q) # repeat for O=c1oc2ccc(F)cc2c(=O)n1-c1ccc(I)cc1F
A) no

Q) # repeat for COc1cc(C(C)n2cc(-c3ccccc3)nn2)ccc1OC1CCCC1 (stereo unspecified)
A) no

Q) # repeat for COC(=O)/C(=C\c1c(-c2ccccc2)[nH]c2ccccc12)S(C)(=O)=O
A) no
